- target_or_system: T1, full-length human CD22 fused with flag and Myc tags at the C-terminus, on HEK293 or K562 cells (human, UniProt P20273 20-847)
- T1 construct: whole, on cells; also called CD22/K562; CD22/HEK293; not shown: C-terminal flag and Myc tags of the pCMV6-Entry vector
- T1 sequence (looked up): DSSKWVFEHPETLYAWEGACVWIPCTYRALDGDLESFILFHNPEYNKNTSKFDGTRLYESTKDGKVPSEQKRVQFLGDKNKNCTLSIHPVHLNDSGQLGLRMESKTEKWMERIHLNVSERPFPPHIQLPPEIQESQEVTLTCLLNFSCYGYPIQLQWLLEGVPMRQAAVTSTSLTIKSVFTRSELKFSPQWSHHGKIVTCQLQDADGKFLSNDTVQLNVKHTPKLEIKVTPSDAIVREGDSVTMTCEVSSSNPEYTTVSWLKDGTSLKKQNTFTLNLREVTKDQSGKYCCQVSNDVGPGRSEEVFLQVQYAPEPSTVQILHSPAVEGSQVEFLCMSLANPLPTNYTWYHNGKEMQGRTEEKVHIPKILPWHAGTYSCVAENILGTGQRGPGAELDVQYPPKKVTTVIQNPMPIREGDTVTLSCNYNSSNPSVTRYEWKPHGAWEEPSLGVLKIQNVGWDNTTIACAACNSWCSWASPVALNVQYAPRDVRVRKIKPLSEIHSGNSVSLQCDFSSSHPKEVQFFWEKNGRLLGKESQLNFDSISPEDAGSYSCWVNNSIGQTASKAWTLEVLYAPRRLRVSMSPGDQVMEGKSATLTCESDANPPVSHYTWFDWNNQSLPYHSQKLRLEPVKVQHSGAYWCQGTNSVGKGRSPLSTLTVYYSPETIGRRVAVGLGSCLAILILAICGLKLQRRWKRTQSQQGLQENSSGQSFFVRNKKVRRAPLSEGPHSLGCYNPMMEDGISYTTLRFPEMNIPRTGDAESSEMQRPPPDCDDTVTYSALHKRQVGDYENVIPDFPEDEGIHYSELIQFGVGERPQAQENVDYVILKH
- method_summary: FACS, scFv titrated on CD22-expressing cells, anti-His Alexa 488
quantity_name: pEC50
FYI, pEC50 means -log10 of a concentration in mol per litre.

What value of measured pEC50 is listed for EP97-B03 scFv (scFv, VH-VL orientation; not shown: C-terminal flag and 6xHIS tag) scFv: QLVQSGAEVKKPGASVKVSCKASGYTFSSYGITWVRQAPGQGLEWMGWISAYNGNTNYAQKFQGRVTLTTDTSTSIAYMELRSLTSDDTAVYYCATGGQEDYWGQGTLVTVSSGGGGSGGGGSGGGGSEIVLTQSPATLSVSPGERATLSCRASQSVSSNLAWYQQKPGQAPRLLIYGASTRATGIPARFSGSGSGTEFTLTISSLQSEDFAVYYCQQYNSWPPLTFGGGTKVEIK ? 9.15

What value of measured pEC50 is listed for EP35-C6 scFv (scFv, VH-VL orientation; also called EP35-C06; not shown: C-terminal flag and 6xHIS tag) scFv: QVQLVESGGGVVQPGGSLRLSCAASGFPFSRFGIHWVRQAPGKGLDWVAFIRTDGGSQHYADSVKGRFTISRDNSENMVYLQMNSLRVDDTALYYCAKDPPRVTGNTGYDYDWGQGVQVTVSSGGGGSGGGGSGGGGSDIVMTQSPDSLAVSLGERATINCKSSQSVLYSANNKNCLAWYQQKSGQPPKLLIYWASTRESGVPGRFSGSGSGTDFTLTISSLQAEDVAVYYCQQYYSPPRTFGQGTKLEIK ? 7.71

What value of measured pEC50 is listed for EP160-G05 scFv (scFv, VH-VL orientation; not shown: C-terminal flag and 6xHIS tag) scFv: EVQLVQSGAEVKKPGASVKVSCKASGYTFTSYGISWVRQAPGQGLEWMGWISAYNGNTNYAQKLQGRVTMTTDTSTSTAYMELRSLRSDDTAVYYCARDPSMDVWGQGTTVTVSSGGGGSGGGGSGGGGSEIVLTQSPATLSVSPGERATLSCRASQSVSSNLAWYQQKPGQAPRLLIYGASTRATGIPARFSGSGSGTEFTLTISSLQSEDFAVYYCQQYNSWPPITFGQGTRLEIK ? 8.54
